target: Trypsin (Homo sapiens, UniProt P07477+P07478+P35030); assay: Inhibitory constant against trypsin determined in Vitro; type: protein assay
Attribute Measured: Ki (nM)

1. N=C(N)c1ccc(CC(=O)CN2CCCC[C@H](NS(=O)(=O)c3ccc4c(c3)CCO4)C2=O)cc1 = 3.2
2. N=C(N)N1CCC(CC(=O)CN2CCCC[C@H](NS(=O)(=O)c3ccc4c(c3)CCO4)C2=O)CC1 = 872.5
3. COc1ccc(OC)c(S(=O)(=O)N[C@H]2CCCCN(CC(=O)Cc3ccc(C(=N)N)cc3)C2=O)c1 = 35.2
4. N=C(N)c1ccc(CC(=O)CN2C(=O)[C@@H](NS(=O)(=O)c3ccc4c(c3)CCO4)CCc3ccccc32)cc1 = 19.5
5. N/C(=N\O)c1ccc(CC(=O)CN2CCCC[C@H](NS(=O)(=O)c3ccc4c(c3)CCO4)C2=O)cc1 = 80.5
6. N=C(N)c1ccc(CC(=O)CN2CCCC[C@H](NS(=O)(=O)Cc3ccccc3)C2=O)cc1 = 84.6
7. N=C(N)c1ccc(CC(=O)CN2CCCC[C@H](NS(=O)(=O)c3ccccc3)C2=O)cc1 = 8.3
8. N=C(N)c1ccc(CC(=O)CN2CCCC[C@H](NS(=O)(=O)c3ccc4c(c3)CCO4)C2=O)s1 = 5.9
9. COc1ccc(S(=O)(=O)N[C@H]2CCCCN(CC(=O)Cc3ccc(C(=N)N)cc3)C2=O)cc1OC = 11.6
10. Cc1nc(N)ccc1CC(=O)CN1CCCC[C@H](NS(=O)(=O)Cc2ccccc2)C1=O = 1678
